Data provenance is paper PMC5543288.

molecular target: dopamine transporter (DAT) in the mouse striatum (Mus musculus); construct: from tissue; host or cells: striatum of living CD-1 male mice (in vivo imaging); test: In vivo DaTSCAN SPECT-CT imaging, striatal [123I]-FP-CIT binding; details: i.p. 30 min before tracer: cocaine 20 mg/kg, amphetamine 10 mg/kg, JWH-018 1 mg/kg, AKB48 1 mg/kg
Sequence (Q61327 whole entry): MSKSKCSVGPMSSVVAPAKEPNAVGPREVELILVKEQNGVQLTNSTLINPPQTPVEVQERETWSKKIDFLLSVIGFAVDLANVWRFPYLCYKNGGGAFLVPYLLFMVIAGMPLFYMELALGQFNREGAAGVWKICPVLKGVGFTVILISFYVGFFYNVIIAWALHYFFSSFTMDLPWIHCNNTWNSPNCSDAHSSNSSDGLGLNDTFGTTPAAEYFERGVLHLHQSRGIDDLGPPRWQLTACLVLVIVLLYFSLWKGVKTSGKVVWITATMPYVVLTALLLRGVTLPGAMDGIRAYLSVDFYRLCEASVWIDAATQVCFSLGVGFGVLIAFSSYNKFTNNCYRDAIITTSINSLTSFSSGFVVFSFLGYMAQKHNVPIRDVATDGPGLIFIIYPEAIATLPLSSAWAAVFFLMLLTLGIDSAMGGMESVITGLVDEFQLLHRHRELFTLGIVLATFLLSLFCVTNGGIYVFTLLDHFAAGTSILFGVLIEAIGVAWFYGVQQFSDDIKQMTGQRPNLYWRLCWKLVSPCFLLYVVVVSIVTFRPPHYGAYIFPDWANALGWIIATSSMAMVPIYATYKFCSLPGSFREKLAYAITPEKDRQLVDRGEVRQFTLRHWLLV
Below is a list of entries, each paired with its recorded reduction of [123I]-FP-CIT binding in the striatum value.
quantityMeasured: reduction of [123I]-FP-CIT binding in the striatum

compound	studySystem	result
CCCCCn1nc(C(=O)NC23CC4CC(CC(C4)C2)C3)c2ccccc21 [AKB48]	dopamine transporter (DAT) in the mouse striatum (Mus musculus)	~ 42%
COC(=O)[C@H]1[C@@H](OC(=O)c2ccccc2)C[C@@H]2CC[C@H]1N2C [Cocaine, reference compound]	dopamine transporter (DAT) in the mouse striatum (Mus musculus)	~ 40%
CCCCCn1cc(C(=O)c2cccc3ccccc23)c2ccccc21 [JWH-018, 1-pentyl-3-(1-naphthoyl)indole]	dopamine transporter (DAT) in the mouse striatum (Mus musculus)	~ 39%
CC(N)Cc1ccccc1 (stereo not shown) [Amphetamine, reference compound]	dopamine transporter (DAT) in the mouse striatum (Mus musculus)	~ 25%

----------
Target: human DAT (Homo sapiens)
Construct: purchased Perkin Elmer; host or cells: CHO cells transfected with human DAT (membrane preparation)
Sequence (Q01959 whole entry): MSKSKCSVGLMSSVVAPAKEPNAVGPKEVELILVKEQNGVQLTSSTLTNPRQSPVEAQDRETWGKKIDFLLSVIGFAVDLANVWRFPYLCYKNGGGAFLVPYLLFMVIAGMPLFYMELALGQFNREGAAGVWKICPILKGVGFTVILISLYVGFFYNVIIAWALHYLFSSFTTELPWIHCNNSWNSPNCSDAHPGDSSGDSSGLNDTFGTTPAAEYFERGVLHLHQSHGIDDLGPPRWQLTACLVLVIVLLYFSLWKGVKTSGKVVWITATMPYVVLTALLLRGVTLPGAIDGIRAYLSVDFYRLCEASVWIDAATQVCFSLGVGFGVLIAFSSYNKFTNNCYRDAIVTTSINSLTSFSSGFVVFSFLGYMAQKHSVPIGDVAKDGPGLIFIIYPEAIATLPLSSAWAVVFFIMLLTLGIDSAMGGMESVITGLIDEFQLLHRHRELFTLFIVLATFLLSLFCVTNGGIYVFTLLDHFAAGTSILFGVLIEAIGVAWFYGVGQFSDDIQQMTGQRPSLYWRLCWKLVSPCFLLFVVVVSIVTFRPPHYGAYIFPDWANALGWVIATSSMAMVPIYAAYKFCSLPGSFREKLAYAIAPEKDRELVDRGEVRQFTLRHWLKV
Assay: [3H]-WIN 35,428 competition binding, CHO membranes transfected with human DAT
Settings: 8 nM [3H]-WIN 35,428, 120 min at 4°C; mean ± SEM; read-out: hDAT-CHO membranes Ki
Description: At the end of the incubation time, bound and free radioactivity were separated by filtering the assay mixture through Whatman GF/B glass fiber filters in a Brandel cell harvester (Brandel, Unterföhring, Germany).
quantityMeasured: Ki (nM)

molecule	quantityMeasured	unitAbbreviation	number
C(=C\c1ccccc1)/CN1CCN(CCOC(c2ccccc2)c2ccccc2)CC1 [GBR 12783, reference compound]	Ki	nM	1.93

----------
Target: mouse DAT (Mus musculus, UniProt Q61327)
Construct: DAT expressed in mouse striatal nerve terminals; from tissue; host or cells: mouse striatum, crude synaptosomal (P2) fraction
Sequence (Q61327 whole entry): as the sequence (Q61327 whole entry) above
Assay: [3H]-WIN 35,428 competition binding, mouse striatal synaptosomes
Settings: 8 nM [3H]-WIN 35,428, 120 min at 4°C; mean ± SEM; read-out: Mouse striatal synaptosomes Ki
Description: Competition binding experiments were carried out incubating 8 nM [^3H]-WIN 35,428 (specific activity 84 Ci/mmol; Perkin Elmer, Boston, MA, USA) with CHO membranes transfected with human DAT (Perkin Elmer) or mouse striatal synaptosomes with different concentration of the examined compounds for 120 min at 4°C. Non-specific binding was determined in the presence of 1 µM GBR 12783. […] Filter bound radioactivity was counted in a Perkin Elmer 2810TR scintillation counter (Perkin Elmer). […]

molecule	unitAbbreviation	Ki
C(=C\c1ccccc1)/CN1CCN(CCOC(c2ccccc2)c2ccccc2)CC1 [GBR 12783, reference compound]	nM	1.72

----------
target: mouse DAT (Mus musculus); construct: DAT expressed in mouse striatal nerve terminals; from tissue; host or cells: mouse striatum, crude synaptosomal (P2) fraction; experiment: [3H]-WIN 35,428 competition binding, mouse striatal synaptosomes

compound	Ki
CCCCCn1nc(C(=O)NC23CC4CC(CC(C4)C2)C3)c2ccccc21	> 10000 nM
CCCCCn1cc(C(=O)c2cccc3ccccc23)c2ccccc21	> 10000 nM
COC(=O)[C@H]1[C@@H](OC(=O)c2ccccc2)C[C@@H]2CC[C@H]1N2C [Cocaine, reference compound]	193 nM
CC(N)Cc1ccccc1 (stereo not shown) [Amphetamine, reference compound]	622 nM
